Reported values of AUC/Dose for individual entries
- RUN DESCRIPTION: in vivo
- Set-up: species or system beagle dogs
- CONDITION: dog, po, 300 mg
*1 amine or outer side, *2 acyl side, *3 side chain or, on linkers, in order; H or OH if unused. Side-chain parts run from the residue outwards. [ ]: non-standard residue; d: D form. The star is where a group is joined. X1 = O=C(O)CCCCCCCCCCCCCCC(=O)N[C@@H](CCC(=O)NCCCC[C@H](NC(=O)CC[C@H](NC(=O)CCCCCCCCCCCCCCC(=O)O)C(=O)O)C(=O)*)C(=O)O; N(2-Aminoethyl)Gly = O=C(CN(CCN[*:3])[*:1])[*:2]; C18 diacid = O=C(O)CCCCCCCCCCCCCCCCC(=O)*; C16 diacid = O=C(O)CCCCCCCCCCCCCCC(=O)*; γGlu = O=C(O)[C@H](CCC(=O)[*:2])N[*:1]; εLys = N[C@@H](CCCCN[*:1])C(=O)[*:2]; AEEA = NCCOCCOCC(=O)O; Aib = CC(C)(N)C(=O)O; Sar = CNCC(=O)O

# SUBSTANCE, AUC/Dose (kg·h/L)
records = [
    ("H-K([γGlu-C18 diacid])[Sar]Y[Aib]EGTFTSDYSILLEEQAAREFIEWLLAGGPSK([εLys-εLys-γGlu-C18 diacid])GAPPPS-OH [Compound 15]", 21.7),
    ("H-K([γGlu-C16 diacid])[Sar]Y[Aib]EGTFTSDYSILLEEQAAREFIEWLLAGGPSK([AEEA-AEEA-γGlu-C16 diacid])GAPPPS-OH [Compound 3]", 38.5),
    ("H-K(X1)[Sar]Y[Aib]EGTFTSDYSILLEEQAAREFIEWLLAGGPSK([εLys-εLys-γGlu-C16 diacid])GAPPPS-OH [Compound 14]", 43.6),
    ("H-G[N(2-Aminoethyl)Gly]([γGlu-C16 diacid])Y[Aib]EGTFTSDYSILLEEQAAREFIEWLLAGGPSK([AEEA-AEEA-γGlu-C16 diacid])GAPPPS-OH [Compound 2]", 22.9),
    ("H-K([γGlu-C16 diacid])VY[Aib]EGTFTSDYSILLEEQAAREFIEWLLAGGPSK([εLys-εLys-γGlu-C16 diacid])GAPPPS-OH [Non-converting compound 2]", 10.8),
    ("H-K([γGlu-C16 diacid])VY[Aib]EGTFTSDYSILLEK([εLys-εLys-γGlu-C18 diacid])QAAREFIEWLLAGGPSSGAPPPS-OH [Non-converting compound 3]", 31.4),
    ("H-K([γGlu-C16 diacid])[Sar]Y[Aib]EGTFTSDYSILLEK([εLys-εLys-γGlu-C18 diacid])QAAREFIEWLLAGGPSSGAPPPS-OH [Compound 16]", 67.6),
    ("H-K([γGlu-C16 diacid])[Sar]Y[Aib]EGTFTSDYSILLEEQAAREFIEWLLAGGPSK([εLys-εLys-γGlu-C16 diacid])GAPPPS-OH [Compound 12]", 50.8),
    ("H-[dK]([γGlu-C16 diacid])[Sar]Y[Aib]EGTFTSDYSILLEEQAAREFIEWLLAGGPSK([AEEA-AEEA-γGlu-C16 diacid])GAPPPS-OH [Compound 1]", 41.2),
    ("H-G[N(2-Aminoethyl)Gly]([γGlu-C16 diacid])Y[Aib]EGTFTSDYSILLEK([εLys-εLys-γGlu-C18 diacid])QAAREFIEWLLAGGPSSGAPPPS-OH [Compound 17]", 30.4),
]
